Overview of recorded Predicted Hepatic Clearance (Pred. Cl.) for various molecules
- Test Method Notes: Microsomal stability, human liver microsomes (predicted hepatic clearance)
- Details: predicted from in vitro microsomal stability data
In your response, put the unit directly after the numeric value.

Before answering, review these 5 worked examples.
Query string: I'd like to know its Predicted Hepatic Clearance (Pred. Cl.). The molecule in question is `N#Cc1cc(F)c(COc2cccc(-c3cc(F)c(Cc4nc5c(F)cc(C(=O)O)cc5n4C[C@@H]4CCO4)cc3F)n2)cc1F`
Result string: 1.83 mL/min/kg

Query string: Can you look up the measured Predicted Hepatic Clearance (Pred. Cl.) of CC1(Cn2c(Cc3ccc(-c4cccc(OCc5ccc(C#N)cc5F)n4)cc3F)nc3ccc(C(=O)O)cc32)CCO1 (stereo not shown) for me?
Result string: 4.67 mL/min/kg

Query string: Sample CC(=O)N1CC[C@@H]1Cn1c(Cc2cc(F)c(-c3cccc(OCc4ccc(C#N)cc4F)n3)cc2F)nc2ccc(C(=O)O)cc21 [Example 925] — what was its Predicted Hepatic Clearance (Pred. Cl.)?
Result string: 5.83 mL/min/kg

Query string: May I ask what Predicted Hepatic Clearance (Pred. Cl.) has been recorded for `N#Cc1ccc(COc2cccc(-c3cc(F)c(Cc4nc5ccc(C(=O)O)cc5n4Cc4nncs4)cc3F)n2)c(F)c1` ?
Result string: 8 mL/min/kg

Query string: Could you share which Predicted Hepatic Clearance (Pred. Cl.) value was measured for `O=C(O)c1cc(F)c2nc(Cc3cc(F)c(-c4ccc(F)c(OCc5ccc(C(F)F)cc5F)n4)cc3F)n(C[C@@H]3CCO3)c2c1` ?
Result string: 1.83 mL/min/kg

Further cases:
Query string: Entry `N#Cc1ccc(COc2cccc(-c3ccc(Cc4nc5ccc(C(=O)O)cc5n4C[C@@H]4CCO4)cc3F)n2)c(F)c1` has what Predicted Hepatic Clearance (Pred. Cl.)?
Result string: 5 mL/min/kg

Query string: // returns reported Predicted Hepatic Clearance (Pred. Cl.) for input `COc1cc(C#N)ncc1COc1cccc(-c2cc(F)c(Cc3nc4ccc(C(=O)O)cc4n3C[C@@H]3CCO3)cc2F)n1`
Result string: 3.33 mL/min/kg
